- System: LAV-2ROD
- assay-notes: Anti-HIV activity assay, LAV-2ROD (MT-4 cells, MTT method)
- Format: cell-based
- condition-parameters: MT4, 120 h; MT-4 cells, five days, LAV-2ROD; read-out: ED50 (50% effective dose)
As shown below, each of these molecules has a reported EC50 value.

molecule	measured-quantity	observed-result
CCCCC/C=C\C/C=C\C/C=C\CCCCC(=O)OC[C@H]1O[C@@H]2C[C@H]1Oc1nc(=O)c(C)cn12 [AK 3, GLA - Anhydrothymidine]	EC50	> 40 µg/mL
CCCCC/C=C\C/C=C\C/C=C\CCCCC(=O)Nc1nc2c(ncn2COCCOC(=O)CCCC/C=C\C/C=C\C/C=C\CCCCC)c(=O)[nH]1	EC50	> 40 µg/mL
CCCCC/C=C\C/C=C\CCCCCCCC(=O)Nc1nc2c(ncn2COCCOC(=O)CCCCCCC/C=C\C/C=C\CCCCC)c(=O)[nH]1	EC50	> 40 µg/mL
CCCCC/C=C\C/C=C\CCCCCCCC(=O)OCCOCn1cnc2c(=O)[nH]c(N)nc21	EC50	> 100 µg/mL
CCCCC/C=C\C/C=C\CCCCCCCC(=O)OC[C@H]1O[C@@H]2C[C@H]1Oc1nc(=O)c(C)cn12	EC50	> 40 µg/mL

Now look at this one.
What does the record list as EC50 for `CCCCC/C=C\C/C=C\C/C=C\CCCCC(=O)OCCOCn1cnc2c(=O)[nH]c(N)nc21` ?
> 40 µg/mL
